Where these numbers come from: ChEMBL document CHEMBL1201862

system: A549; assay: NCI tumour cell line growth inhibition, 48 h
The source made the active and inactive calls. Cut-off read from the data, not from the text of the source: active = GI50 up to about 1.1 µM and inactive = higher. Residues, ends and D or L forms follow the SMILES beside them. *: point of attachment. Cbz = O=C(OCc1ccccc1)*
quantity-name: GI50

compound	measurement-target	GI50
C[Si]1(C)C(c2ccccc2)=CC2C(c3ccccc3)(c3ccccc3)OC21c1ccccc1 (stereo unspecified)	A549	> 100 µM (inactive)
CC(O)C(O)C(N)CC=O (stereo unspecified)	A549	> 500 µM (inactive)
CCOC(=O)CCC(NC(=O)OCc1ccccc1)C(=O)NC(CCC(=O)OCC)C(=O)OCC (stereo unspecified) (Cbz-Glu(OEt)-Glu(OEt)-OEt; configuration not given here)	A549	> 100 µM (inactive)
c1cnc2c(c1)-n1cccc1C1(CCSCC1)NN2	A549	> 100 µM (inactive)
Cc1cc(NCCCCCCCNc2cc(C)nc3cc([N+](=O)[O-])ccc23)c2ccc([N+](=O)[O-])cc2n1	A549	3.69 µM (inactive)

List the reported GI50 of each compound below.
1. O=C1C=C[C@@H](COC2OC(CO)C(O)C(O)C2O)O1 (stereo partly specified)
2. COc1cc2oc(=O)cc(C)c2cc1O

1: 22 µM (inactive); 2: > 100 µM (inactive)

List the reported GI50 of each compound below.
1. O=C1N[C@@H](COc2ccc(/C=N/c3ccc(CCc4ccc(/N=C/c5ccc(OC[C@@H]6COC(=O)N6)cc5)cc4)cc3)cc2)CO1
2. O=S1(=O)CCN(Cc2ccccn2)CC1
3. Cc1cc(O)nc(NNC(C#N)c2cccc([N+](=O)[O-])c2)n1 (stereo unspecified)
4. Nc1nc(Cl)cc(NCC2(CO)CC(Cc3ccccc3)C2)n1 (stereo unspecified)

["> 100 µM (inactive)", "> 100 µM (inactive)", "> 100 µM (inactive)", "19.1 µM (inactive)"]
